- System: SW756 (cervix)
- experimental protocol: CellTiterGlo Cell Proliferation Assay (2D), SW756
- Type: cell-based
- condition parameters: Homo sapiens, 96 hours
pIC50: −log10 of the molar value.
measure: pIC50

{"columns": ["compound", "measure", "reading"],
 "data": [
  ["C=CC(=O)N1CCN2C(=O)c3cc(F)c(-c4ccc(F)c5sc(N)c(C#N)c45)c(Cl)c3OC[C@H]2C1", "pIC50", 5.60],
  ["C=CC(=O)N1CCN2C(=O)c3cc(Cl)c(-c4ccc(F)c5sc(N)nc45)c(Cl)c3OCC[C@H]2C1 (atropisomer, axis not shown)", "pIC50", 5.79],
  ["C=CC(=O)N1CCN2C(=O)c3cc(F)c(-c4cccc5sc(N)c(C#N)c45)c(Cl)c3OCC[C@H]2C1", "pIC50", 5.97],
  ["C=CC(=O)N1CCN2C(=O)c3cc(F)c(-c4ccc(F)c5sc(N)c(C#N)c45)c(Cl)c3OCC[C@H]2C1", "pIC50", 5.81]
]}

====

- Tested on: MIAPACA2
- experimental protocol: In vitro combination proliferation assay (4 day, Cell TiterGlo), MIAPACA2
- Type: cell-based
- condition parameters: MIAPACA2, 4 day growth assay, absolute IC50
// values below are reported IC50, single treatment (Compound IC50 / Example 35 IC50)
measure: IC50, single treatment (Compound IC50 / Example 35 IC50)

{"columns": ["compound smiles", "measurement target", "reading"],
 "data": [
  ["CCN1CCN(Cc2ccc(Nc3ncc(F)c(-c4cc(F)c5nc(C)n(C(C)C)c5c4)n3)nc2)CC1", "MIAPACA2", "280.3 nM"],
  ["C#Cc1cccc(Nc2ncnc3cc(OCCOC)c(OCCOC)cc23)c1", "MIAPACA2", ">10000 nM"],
  ["CN(C)C/C=C/C(=O)Nc1cc2c(Nc3ccc(F)c(Cl)c3)ncnc2cc1O[C@H]1CCOC1", "MIAPACA2", "1944 nM"],
  ["Cn1nccc1Nc1nccc(-c2cc3c(s2)C(C)(C)N(CCN2CCOCC2)C3=O)n1", "MIAPACA2", "840.5 nM"]
]}

====

- Test system: H1373 (lung)
- experimental protocol: CellTiterGlo Cell Proliferation Assay (2D), H1373
- Type: cell-based
- condition parameters: Homo sapiens, NCI-H1373, 96 hours

{"columns": ["molecule", "measurement target", "IC50 / µM"],
 "data": [
  ["C=CC(=O)N1CCN2C(=O)c3cc(Cl)c(-c4ccc(F)c5sc(N)nc45)c(Cl)c3OCC[C@H]2C1 (atropisomer, axis not shown) [Example 1]", "H1373 (lung)", 1.81],
  ["C=CC(=O)N1CCN2C(=O)c3cc(F)c(-c4ccc(F)c5sc(N)c(C#N)c45)c(Cl)c3OC[C@H]2C1 [Example 36]", "H1373 (lung)", 5.49],
  ["C=CC(=O)N1CCN2C(=O)c3cc(F)c(-c4cccc5sc(N)c(C#N)c45)c(Cl)c3OCC[C@H]2C1 [Example 34]", "H1373 (lung)", 6.74],
  ["C=CC(=O)N1CCN2C(=O)c3cc(F)c(-c4ccc(F)c5sc(N)c(C#N)c45)c(Cl)c3OCC[C@H]2C1 [Example 35]", "H1373 (lung)", 3.54]
]}

====

The following compounds are listed with their measured inhibition at 10 µM values.
- Tested on: SW1573 (lung)
- experimental protocol: CellTiterGlo Cell Proliferation Assay (2D), SW1573
- Format: cell-based
- condition parameters: Homo sapiens, 96 hours, 10 μM

{"columns": ["compound", "measurement target", "readout unit", "inhibition at 10 µM"],
 "data": [
  ["C=CC(=O)N1CCN2C(=O)c3cc(F)c(-c4cccc5sc(N)c(C#N)c45)c(Cl)c3OCC[C@H]2C1", "SW1573 (lung)", "%", 60.8],
  ["C=CC(=O)N1CCN2C(=O)c3cc(F)c(-c4ccc(F)c5sc(N)c(C#N)c45)c(Cl)c3OCC[C@H]2C1", "SW1573 (lung)", "%", 44.7],
  ["C=CC(=O)N1CCN2C(=O)c3cc(Cl)c(-c4ccc(F)c5sc(N)nc45)c(Cl)c3OCC[C@H]2C1 (atropisomer, axis not shown)", "SW1573 (lung)", "%", 35],
  ["C=CC(=O)N1CCN2C(=O)c3cc(F)c(-c4ccc(F)c5sc(N)c(C#N)c45)c(Cl)c3OC[C@H]2C1", "SW1573 (lung)", "%", 54.3]
]}

====

- Tested on: LU99 (lung)
- experimental protocol: CellTiterGlo Cell Proliferation Assay (2D), LU99
- Format: cell-based
- condition parameters: Homo sapiens, Lu-99, 96 hours
- Protocol: The purpose of this assay is to evaluate the growth of KRas G12C mutant tumor lines following treatment with a test compound. A panel of tumor cell lines harboring KRas G12C or other KRas mutations are collected (Table 25). All cell lines are from ATCC or other sources indicated. Typically cells are cultured in RPMI1640 or Dulbecco's modified Eagle's medium (DMEM, GIBCO) supplemented with 10% FBS (GIBCO, Invitrogen). […]
pIC50: −log10 of the molar value.
Attribute: pIC50
measure: pIC50

{"columns": ["molecule", "reading"],
 "data": [
  ["C=CC(=O)N1CCN2C(=O)c3cc(Cl)c(-c4ccc(F)c5sc(N)nc45)c(Cl)c3OCC[C@H]2C1 (atropisomer, axis not shown)", 6.52],
  ["C=CC(=O)N1CCN2C(=O)c3cc(F)c(-c4ccc(F)c5sc(N)c(C#N)c45)c(Cl)c3OC[C@H]2C1", 6.46],
  ["C=CC(=O)N1CCN2C(=O)c3cc(F)c(-c4ccc(F)c5sc(N)c(C#N)c45)c(Cl)c3OCC[C@H]2C1", 6.76],
  ["C=CC(=O)N1CCN2C(=O)c3cc(F)c(-c4cccc5sc(N)c(C#N)c45)c(Cl)c3OCC[C@H]2C1", 6.70]
]}

====

- System: H1373 (lung)
- experimental protocol: CellTiterGlo Cell Proliferation Assay (2D), H1373
- Type: cell-based
- condition parameters: Homo sapiens, NCI-H1373, 96 hours, 10 μM

{"columns": ["compound", "inhibition at 10 µM, %"],
 "data": [
  ["C=CC(=O)N1CCN2C(=O)c3cc(F)c(-c4ccc(F)c5sc(N)c(C#N)c45)c(Cl)c3OCC[C@H]2C1", 86.3],
  ["C=CC(=O)N1CCN2C(=O)c3cc(Cl)c(-c4ccc(F)c5sc(N)nc45)c(Cl)c3OCC[C@H]2C1 (atropisomer, axis not shown)", 68.8],
  ["C=CC(=O)N1CCN2C(=O)c3cc(F)c(-c4cccc5sc(N)c(C#N)c45)c(Cl)c3OCC[C@H]2C1", 67.7],
  ["C=CC(=O)N1CCN2C(=O)c3cc(F)c(-c4ccc(F)c5sc(N)c(C#N)c45)c(Cl)c3OC[C@H]2C1", 82.6]
]}

====

- measurement target: KRas G12C (Homo sapiens, UniProt P01116, G12C)
- Sequence (P01116 1-188 isoform P01116-2 G12C): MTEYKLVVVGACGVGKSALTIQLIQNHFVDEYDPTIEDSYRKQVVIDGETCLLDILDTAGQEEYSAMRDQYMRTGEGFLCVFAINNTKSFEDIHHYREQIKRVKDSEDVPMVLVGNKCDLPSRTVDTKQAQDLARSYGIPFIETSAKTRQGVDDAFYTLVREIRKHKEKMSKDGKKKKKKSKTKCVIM
- experimental protocol: KRas G12C Probe Occupancy TR-FRET Assay
- Format: binding
- condition parameters: 5 minutes incubation of inhibitor with KRas G12C; n=4
pIC50: −log10 of the molar value.

{"columns": ["molecule", "pIC50"],
 "data": [
  ["C=CC(=O)N1CCN2C(=O)c3cc(Cl)c(-c4ccc(F)c5sc(N)nc45)c(Cl)c3OCC[C@H]2C1 (atropisomer, axis not shown) [Example 1]", "> 7.82"]
]}

====

Listed next: entries and their corresponding inhibition at 10 µM.
- Test system: H23 (lung)
- experimental protocol: CellTiterGlo Cell Proliferation Assay (2D), H23
- Format: cell-based
- condition parameters: 96 hours, 10 μM
measure: inhibition at 10 µM (%)

{"columns": ["molecule", "reading"],
 "data": [
  ["C=CC(=O)N1CCN2C(=O)c3cc(F)c(-c4ccc(F)c5sc(N)c(C#N)c45)c(Cl)c3OCC[C@H]2C1", 98],
  ["C=CC(=O)N1CCN2C(=O)c3cc(F)c(-c4cccc5sc(N)c(C#N)c45)c(Cl)c3OCC[C@H]2C1", 96.8],
  ["C=CC(=O)N1CCN2C(=O)c3cc(Cl)c(-c4ccc(F)c5sc(N)nc45)c(Cl)c3OCC[C@H]2C1 (atropisomer, axis not shown)", 98.2],
  ["C=CC(=O)N1CCN2C(=O)c3cc(F)c(-c4ccc(F)c5sc(N)c(C#N)c45)c(Cl)c3OC[C@H]2C1", 96.7]
]}

====

The following molecules are shown together with reported inhibition at 10 µM values.
- Test system: SW756 (cervix)
- experimental protocol: CellTiterGlo Cell Proliferation Assay (2D), SW756
- Assay type: cell-based
- condition parameters: Homo sapiens, 96 hours, 10 μM

{"columns": ["molecule", "inhibition at 10 µM / %"],
 "data": [
  ["C=CC(=O)N1CCN2C(=O)c3cc(F)c(-c4ccc(F)c5sc(N)c(C#N)c45)c(Cl)c3OCC[C@H]2C1", 56.7],
  ["C=CC(=O)N1CCN2C(=O)c3cc(F)c(-c4ccc(F)c5sc(N)c(C#N)c45)c(Cl)c3OC[C@H]2C1", 58.1],
  ["C=CC(=O)N1CCN2C(=O)c3cc(Cl)c(-c4ccc(F)c5sc(N)nc45)c(Cl)c3OCC[C@H]2C1 (atropisomer, axis not shown)", 51.9],
  ["C=CC(=O)N1CCN2C(=O)c3cc(F)c(-c4cccc5sc(N)c(C#N)c45)c(Cl)c3OCC[C@H]2C1", 56.9]
]}
